Test system: 435261-313-R-J1-PDC complex spheroid viability
measurementNotes: Anticancer human tumor 435261-313-R-J1-PDC patient-derived colon adenocarcinoma cell line growth inhibition [GQUAD]
assaySetup: second compound 3.16 µM; first compound 0.0316 µM; stronger effect = lower value
Hi! Could you tag entries with viability, T/C below 30% as y, and those at or above as n? Much appreciated.

| compound | assignedCategory |
| --- | --- |
| CC[C@@]1(O)C(=O)OCc2c1cc1n(c2=O)Cc2cc3c(CN(C)C)c(O)ccc3nc2-1 + Cc1[nH]c2ccc(F)cc2c1-c1nc2c3cccnc3c3ncccc3c2[nH]1 | y |
| Nc1ccn(C2OC(CO)C(O)C2(F)F)c(=O)n1 (stereo not given) + Cc1cnc(CNC(=O)c2c(=O)c3ccc(N4CCCN(C)CC4)nc3n3c2sc2ccccc23)cn1 | y |
| CC(C)n1c(=O)n(C)c2cnc3cc(F)c(-c4ccc(OCCCN5CCCCC5)nc4)cc3c21 + Cc1cnc(CNC(=O)c2c(=O)c3ccc(N4CCCN(C)CC4)nc3n3c2sc2ccccc23)cn1 | y |
| COc1ccc([C@@H](O)c2cc(-c3ncnc4cc(N5CCOCC5)ccc34)c(F)cc2Cl)nn1 + CN(C)c1ccc(Nc2c3ccc(NC(=O)CCN4CCCC4)cc3nc3cc(NC(=O)CCN4CCCC4)ccc23)cc1 | n |

* * *

Tested on: 435261-313-R-J1-PDC complex spheroid viability
measurementNotes: Anticancer human tumor 435261-313-R-J1-PDC cell line growth inhibition [GQUAD];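 further: spheroids exposed to the agents for seven days before readout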;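 on viability, T/C: percent of vehicle control viability with DMSO wells as 100%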
assaySetup: second compound 0.0316 µM; first compound 0.1 µM; stronger effect = lower value
In plain terms, low viability, T/C, meaning strictly below 70%, gives Satisfied, and everything else gives Not satisfied.

| compound | assaySystem | assignedCategory |
| --- | --- | --- |
| CC1COCCN1c1cc(-c2ccnn2C)c2ccnc(-c3ccn[nH]3)c2n1 (stereo not given) + Cc1cnc(CNC(=O)c2c(=O)c3ccc(N4CCCN(C)CC4)nc3n3c2sc2ccccc23)cn1 | 435261-313-R-J1-PDC complex spheroid viability | Satisfied |
| CC1COCCN1c1cc(C2(S(C)(=N)=O)CC2)nc(-c2ccnc3[nH]ccc23)n1 (stereo not given) + CN(C)c1ccc(Nc2c3ccc(NC(=O)CCN4CCCC4)cc3nc3cc(NC(=O)CCN4CCCC4)ccc23)cc1 | 435261-313-R-J1-PDC complex spheroid viability | Not satisfied |

* * *

System: 435261-313-R-J1-PDC complex spheroid viability
measurementNotes: Anticancer human tumor 435261-313-R-J1-PDC cell line growth inhibition [GQUAD]; active means viability on the fitted dose curve at most 10% of control; inactive means the rest;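 further: spheroids exposed to the agents for seven days before readout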
assaySetup: second compound 0.0316 µM; first compound 0.316 µM
Labels: active, inactive

| compound | assignedCategory |
| --- | --- |
| Cc1cccc(N(C)C(=O)C2C(O)CCN2c2nc(C)cc(C(F)(F)F)c2C#N)c1 (centres undefined) + CN(C)c1ccc(Nc2c3ccc(NC(=O)CCN4CCCC4)cc3nc3cc(NC(=O)CCN4CCCC4)ccc23)cc1 | inactive |
| O=c1[nH]cc(F)c(=O)[nH]1 + CN(C)c1ccc(Nc2c3ccc(NC(=O)CCN4CCCC4)cc3nc3cc(NC(=O)CCN4CCCC4)ccc23)cc1 | inactive |
| COc1ccc([C@@H](O)c2cc(-c3ncnc4cc(N5CCOCC5)ccc34)c(F)cc2Cl)nn1 + Cc1cnc(CNC(=O)c2c(=O)c3ccc(N4CCCN(C)CC4)nc3n3c2sc2ccccc23)cn1 | inactive |
| Cc1[nH]c2ccccc2c1CCNCc1ccc(/C=C/C(=O)NO)cc1 + Cc1[nH]c2ccc(F)cc2c1-c1nc2c3cccnc3c3ncccc3c2[nH]1 | active |
| CC1COCCN1c1cc(C2(O)CC3CCC(C2)O3)c2cnn(-c3ccn[nH]3)c2n1 (centres undefined) + Cc1cnc(CNC(=O)c2c(=O)c3ccc(N4CCCN(C)CC4)nc3n3c2sc2ccccc23)cn1 | inactive |
| CC(C)(O)C1CCC(Nc2ccc3ncc(-c4cccc(C(F)(F)F)c4)n3n2)CC1 (centres undefined) + Cc1[nH]c2ccc(F)cc2c1-c1nc2c3cccnc3c3ncccc3c2[nH]1 | inactive |
| COc1ccc([C@@H](O)c2cc(-c3ncnc4cc(N5CCOCC5)ccc34)c(F)cc2Cl)nn1 + CN(C)c1ccc(Nc2c3ccc(NC(=O)CCN4CCCC4)cc3nc3cc(NC(=O)CCN4CCCC4)ccc23)cc1 | inactive |
| CCc1c2c(nc3ccc(O)cc13)-c1cc3c(c(=O)n1C2)COC(=O)[C@]3(O)CC + Cc1[nH]c2ccc(F)cc2c1-c1nc2c3cccnc3c3ncccc3c2[nH]1 | inactive |
| Cn1ncnc1[C@H]1c2n[nH]c(=O)c3cc(F)cc(c23)N[C@@H]1c1ccc(F)cc1 + Cc1cnc(CNC(=O)c2c(=O)c3ccc(N4CCCN(C)CC4)nc3n3c2sc2ccccc23)cn1 | inactive |

* * *

Listing: pIC50 of selected compounds
Tested on: 435261-313-R-J1-PDC complex spheroid viability
measurementNotes: Anticancer human tumor 435261-313-R-J1-PDC cell line growth inhibition [GQUAD];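 further: spheroids exposed to the agents for seven days before readout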
assaySetup: curve of first compound; second compound 0.0316 µM
pIC50: −log10 of the molar value.

| compound | pIC50 |
| --- | --- |
| CC(=O)O[C@H]1C(=O)[C@@]2(C)[C@H]([C@H](OC(=O)c3ccccc3)[C@]3(O)C[C@H](OC(=O)[C@H](O)[C@@H](NC(=O)c4ccccc4)c4ccccc4)C(C)=C1C3(C)C)[C@]1(OC(C)=O)CO[C@@H]1C[C@@H]2O + Cc1[nH]c2ccc(F)cc2c1-c1nc2c3cccnc3c3ncccc3c2[nH]1 | < 5.00 |
| C=CCn1c(=O)c2cnc(Nc3ccc(N4CCN(C)CC4)cc3)nc2n1-c1cccc(C(C)(C)O)n1 + CN(C)c1ccc(Nc2c3ccc(NC(=O)CCN4CCCC4)cc3nc3cc(NC(=O)CCN4CCCC4)ccc23)cc1 | < 5.00 |

* * *

Tested on: 435261-313-R-J1-PDC complex spheroid viability
measurementNotes: Anticancer human tumor 435261-313-R-J1-PDC cell line growth inhibition [GQUAD];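 further: spheroids exposed to the agents for seven days before readout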
assaySetup: curve of first compound; second compound 1 µM
Listing of recorded IC50 by entry.

| molecule | IC50 |
| --- | --- |
| COc1ccc([C@@H](O)c2cc(-c3ncnc4cc(N5CCOCC5)ccc34)c(F)cc2Cl)nn1 + Cc1cnc(CNC(=O)c2c(=O)c3ccc(N4CCCN(C)CC4)nc3n3c2sc2ccccc23)cn1 | < 31.6 nM |
| COc1ncnc(C2CC2)c1-c1ncc2cnn(Cc3ccc(-c4nc(C(F)(F)F)cn4C(C)C)cc3)c2n1 + CN(C)c1ccc(Nc2c3ccc(NC(=O)CCN4CCCC4)cc3nc3cc(NC(=O)CCN4CCCC4)ccc23)cc1 | > 10000 nM |
| Cn1ncnc1[C@H]1c2n[nH]c(=O)c3cc(F)cc(c23)N[C@@H]1c1ccc(F)cc1 + Cc1[nH]c2ccc(F)cc2c1-c1nc2c3cccnc3c3ncccc3c2[nH]1 | > 316 nM |

* * *

System: 435261-313-R-J1-PDC complex spheroid viability
measurementNotes: Anticancer human tumor 435261-313-R-J1-PDC cell line growth inhibition [GQUAD];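 further: spheroids exposed to the agents for seven days before readout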;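 on viability, T/C: percent of vehicle control viability with DMSO wells as 100%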
assaySetup: second compound 0.1 µM; first compound 0.0316 µM; stronger effect = lower value
Description: DNA G-quadruplex Stabilizer Agents in Combinations in Complex Spheroids A high-throughput screen of multi-cell type tumor spheroids was designed to identify active combinations of DNA G-quadruplex stabilizer agents and targeted small molecules. […] Compounds. […] If the clinical Cmax for an agent had not been determined, the highest concentration tested was 10 microM. […]
Below is a list of entries, each paired with its recorded viability, T/C value.

| compound | viability, T/C |
| --- | --- |
| C#Cc1c(F)ccc2cc(O)cc(-c3ncc4c(N5CC6CCC(C5)N6)nc(OCC56CCCN5CC(F)C6)nc4c3F)c12 (stereo not given) + Cc1cnc(CNC(=O)c2c(=O)c3ccc(N4CCCN(C)CC4)nc3n3c2sc2ccccc23)cn1 | 59.5% |
| COc1ncnc(C2CC2)c1-c1ncc2cnn(Cc3ccc(-c4nc(C(F)(F)F)cn4C(C)C)cc3)c2n1 + Cc1cnc(CNC(=O)c2c(=O)c3ccc(N4CCCN(C)CC4)nc3n3c2sc2ccccc23)cn1 | 65.5% |
| Cc1[nH]c2ccccc2c1CCNCc1ccc(/C=C/C(=O)NO)cc1 + Cc1[nH]c2ccc(F)cc2c1-c1nc2c3cccnc3c3ncccc3c2[nH]1 | 66.1% |
| C#Cc1c(F)ccc2cc(O)cc(-c3ncc4c(N5CC6CCC(C5)N6)nc(OCC56CCCN5CC(F)C6)nc4c3F)c12 (stereo not given) + CN(C)c1ccc(Nc2c3ccc(NC(=O)CCN4CCCC4)cc3nc3cc(NC(=O)CCN4CCCC4)ccc23)cc1 | 123% |
| CC(=O)O[C@H]1C(=O)[C@@]2(C)[C@H]([C@H](OC(=O)c3ccccc3)[C@]3(O)C[C@H](OC(=O)[C@H](O)[C@@H](NC(=O)c4ccccc4)c4ccccc4)C(C)=C1C3(C)C)[C@]1(OC(C)=O)CO[C@@H]1C[C@@H]2O + Cc1cnc(CNC(=O)c2c(=O)c3ccc(N4CCCN(C)CC4)nc3n3c2sc2ccccc23)cn1 | 54.5% |
| Cc1cccc(N(C)C(=O)C2C(O)CCN2c2nc(C)cc(C(F)(F)F)c2C#N)c1 (stereo not given) + CN(C)c1ccc(Nc2c3ccc(NC(=O)CCN4CCCC4)cc3nc3cc(NC(=O)CCN4CCCC4)ccc23)cc1 | 84.8% |
| O=C(NO)c1cnc(N2CCN(S(=O)(=O)c3ccc4ccccc4c3)CC2)nc1 + Cc1[nH]c2ccc(F)cc2c1-c1nc2c3cccnc3c3ncccc3c2[nH]1 | 72.8% |
| CCc1c2c(nc3ccc(O)cc13)-c1cc3c(c(=O)n1C2)COC(=O)[C@]3(O)CC + CN(C)c1ccc(Nc2c3ccc(NC(=O)CCN4CCCC4)cc3nc3cc(NC(=O)CCN4CCCC4)ccc23)cc1 | 74.5% |
| Cn1ncnc1[C@H]1c2n[nH]c(=O)c3cc(F)cc(c23)N[C@@H]1c1ccc(F)cc1 + Cc1cnc(CNC(=O)c2c(=O)c3ccc(N4CCCN(C)CC4)nc3n3c2sc2ccccc23)cn1 | 57% |
| CCc1c2c(nc3ccc(O)cc13)-c1cc3c(c(=O)n1C2)COC(=O)[C@]3(O)CC + Cc1cnc(CNC(=O)c2c(=O)c3ccc(N4CCCN(C)CC4)nc3n3c2sc2ccccc23)cn1 | 52.7% |
| CC1COCCN1c1cc(-c2ccnn2C)c2ccnc(-c3ccn[nH]3)c2n1 (stereo not given) + Cc1cnc(CNC(=O)c2c(=O)c3ccc(N4CCCN(C)CC4)nc3n3c2sc2ccccc23)cn1 | 61.8% |
| C#Cc1c(F)ccc2cc(O)cc(-c3ncc4c(N5CC6CCC(C5)N6)nc(OCC56CCCN5CC(F)C6)nc4c3F)c12 (stereo not given) + Cc1[nH]c2ccc(F)cc2c1-c1nc2c3cccnc3c3ncccc3c2[nH]1 | 107% |
| CC1COCCN1c1cc(C2(S(C)(=N)=O)CC2)nc(-c2ccnc3[nH]ccc23)n1 (stereo not given) + CN(C)c1ccc(Nc2c3ccc(NC(=O)CCN4CCCC4)cc3nc3cc(NC(=O)CCN4CCCC4)ccc23)cc1 | 88.2% |
| O=c1[nH]cc(F)c(=O)[nH]1 + Cc1[nH]c2ccc(F)cc2c1-c1nc2c3cccnc3c3ncccc3c2[nH]1 | 94.7% |
| COc1ccc([C@@H](O)c2cc(-c3ncnc4cc(N5CCOCC5)ccc34)c(F)cc2Cl)nn1 + CN(C)c1ccc(Nc2c3ccc(NC(=O)CCN4CCCC4)cc3nc3cc(NC(=O)CCN4CCCC4)ccc23)cc1 | 107% |
| O=C(c1cc(Cc2n[nH]c(=O)c3ccccc23)ccc1F)N1CCN(C(=O)C2CC2)CC1 + Cc1cnc(CNC(=O)c2c(=O)c3ccc(N4CCCN(C)CC4)nc3n3c2sc2ccccc23)cn1 | 65.2% |
| Nc1ccn(C2OC(CO)C(O)C2(F)F)c(=O)n1 (stereo not given) + CN(C)c1ccc(Nc2c3ccc(NC(=O)CCN4CCCC4)cc3nc3cc(NC(=O)CCN4CCCC4)ccc23)cc1 | 85.3% |
| CC[C@@]1(O)C(=O)OCc2c1cc1n(c2=O)Cc2cc3c(CN(C)C)c(O)ccc3nc2-1 + Cc1cnc(CNC(=O)c2c(=O)c3ccc(N4CCCN(C)CC4)nc3n3c2sc2ccccc23)cn1 | 50.9% |
| Nc1ccn(C2OC(CO)C(O)C2(F)F)c(=O)n1 (stereo not given) + Cc1cnc(CNC(=O)c2c(=O)c3ccc(N4CCCN(C)CC4)nc3n3c2sc2ccccc23)cn1 | 62.5% |
| COc1ncnc(C2CC2)c1-c1ncc2cnn(Cc3ccc(-c4nc(C(F)(F)F)cn4C(C)C)cc3)c2n1 + CN(C)c1ccc(Nc2c3ccc(NC(=O)CCN4CCCC4)cc3nc3cc(NC(=O)CCN4CCCC4)ccc23)cc1 | 103% |

Source of measurements: PubChem BioAssay AID2060494
